Reference source: PubChem BioAssay (NCI)

# Tested on: SNB-19 CNS
# protocol-description: NCI tumour cell line growth inhibition, 48 h
What TGI was measured for each of the following?

- compound: "CC(C)[C@@H]1NC(=O)[C@]2(C)CSC(=N2)c2csc(n2)CNC(=O)C[C@@H](/C=C/CCS)OC1=O"
  test-result: "> 44.3 µM"
- compound: "Cn1c(=O)c(Sc2ccccc2F)cc2cnc(NC3CCOCC3)nc21"
  test-result: "> 25 µM"
- compound: "O=C1OCC2=C1C(c1ccccc1)c1cc3c(cc1N2CCO)CCC3 (stereo unspecified)"
  test-result: "> 12.9 µM"
- compound: "CC(=O)N(/N=C\\c1ccc([N+](=O)[O-])cc1)c1ccccc1"
  test-result: "> 100 µM"
- compound: "O=[N+]([O-])c1ccccc1S(=O)(=O)c1ccccc1[N+](=O)[O-]"
  test-result: "> 97.7 µM"

Report TGI for every entry below.
1. CCOC(=O)CC(=O)N(c1ccc(OC)cc1)C(C(=O)OC)c1ccccc1 (stereo unspecified)
2. O=C(O)c1cnccc1-c1cc(=O)[nH]n1-c1ccccc1

Output:
1: > 100 µM; 2: > 100 µM

###

# Tested on: OVCAR-4 ovarian
# protocol-description: NCI tumour cell line growth inhibition, 48 h; in the data active means GI50 below about 0.43 µM; inactive means the rest
Choose one outcome from this list and give only that: active, inactive

Field: example entries. Status: answers known.
- compound: "COc1cc2c3c(n(CCCN=[N+]=[N-])c(=O)c2cc1OC)-c1ccc(N)cc1C3=O"
  tested-system: "OVCAR-4 ovarian"
  group-label: "inactive"
- compound: "S=C(Nc1ccc(-c2nc3ccccc3s2)cc1)Nc1ccccn1"
  tested-system: "OVCAR-4 ovarian"
  group-label: "inactive"
- compound: "Cc1cc(N2CCOCC2)nc(N(CCNc2ccnc3cc(Cl)ccc23)Cc2ccco2)n1"
  tested-system: "OVCAR-4 ovarian"
  group-label: "inactive"
- compound: "C[C@@]12CCC[C@@](C)(C(=O)O)C1CC[C@]13C=C(CO)[C@](O)(CCC12)C3 (stereo not given in full)"
  tested-system: "OVCAR-4 ovarian"
  group-label: "inactive"

Task: Give the logged outcome of this assay for the following compound: `CC(C)[C@@H]1NC(=O)[C@]2(C)CSC(=N2)c2csc(n2)CNC(=O)C[C@@H](/C=C/CCS)OC1=O`
Output: active

###

# Test system: SN12C renal
# protocol-description: NCI tumour cell line growth inhibition, 48 h
TGI of 30 µM or higher: yes. Under 30 µM: no.

Field: example entries. Status: answers known.
- compound: "CC(C)c1ccc2c(c1)[C@@]1(C)CC[C@H](C)C(C)(C)C1CC2 (stereo not given in full)"
  group-label: "yes"
- compound: "Cc1cc2c(cc1C)C(=O)c1ncccc1C2=O"
  group-label: "yes"
- compound: "CCCCCCCCC(=O)CCCCCCCCC(=O)O"
  group-label: "yes"

Task: API: above_or_equal(metric=TGI, cutoff=30 µM) for item CC(C)Cc1ccc(C(C)/C=C2\CCC(CN3CCOCC3)C2=O)cc1 (stereo not given)
Output: no

###

# Tested on: K-562 leukemia
# protocol-description: NCI tumour cell line growth inhibition, 48 h
What TGI was measured for each of the following?
Numbers only, in µM.

Report TGI for every entry below.
1. Nc1nn(C(=O)Nc2ccc(Cc3ccccc3)cc2)c2ccc(Cl)cc12
2. O=S1Cc2ccccc2CS1 (stereo not given)

Output:
1: 16.9; 2: 49.9

###

# Tested on: SNB-19 CNS
# protocol-description: NCI tumour cell line growth inhibition, 48 h
What TGI was measured for each of the following?

Worked cases, TGI given:
- molecule: "Nn1c(-c2ccccc2Nc2ccccc2-c2n[nH]c(=S)n2N)n[nH]c1=S"
  tested-system: "SNB-19 CNS"
  TGI: "> 50 µM"
- molecule: "CCOC(=O)C(=CNC(Cc1c[nH]c2ccccc12)C(=O)OC)C(=O)OCC (centres undefined)"
  tested-system: "SNB-19 CNS"
  TGI: "> 100 µM"
- molecule: "CC(=O)OCC1OC(O[C@@H]2C[C@H]3C(C)(C)[C@H](OC(C)=O)CC[C@]3(C)[C@H]3CC[C@@]45C[C@H](O)C[C@H](C)[C@@H]4CC=C5[C@@]32C)C(O)C(O)C1O (some centres undefined)"
  tested-system: "SNB-19 CNS"
  TGI: "14.9 µM"
- molecule: "O=CC(O)C(O)C(O)COc1cc(CO)cc2c1C(=O)c1ccccc1C2=O (centres undefined)"
  tested-system: "SNB-19 CNS"
  TGI: "> 100 µM"
- molecule: "N#CC(NC12CC3CC(CC(C3)C1)C2)c1ccccc1 (centres undefined)"
  tested-system: "SNB-19 CNS"
  TGI: "> 100 µM"

Report TGI for every entry below.
1. Nc1ccc(S(=O)(=O)Nc2nc3ccccc3nc2Nc2ccc(S(N)(=O)=O)cc2)cc1
2. COc1cc(-c2nn(C)nc2-c2cc3ccccc3s2)cc(OC)c1OC
3. O=Cc1ncc(-c2ccc(C(F)(F)F)cc2)c(NC2CCCCCC2)n1
4. CC(=O)c1cc2c3c(c1)c1cc4c(cc1c(=O)n3CC2)OCO4

Output:
> 100 µM
> 100 µM
> 10 µM
> 100 µM

###

# System: MDA-MB-435
Choose one outcome from this list and give only that: active, inactive

Field: example entries. Status: answers known.
- smiles-entry: "C=C1C(=O)O[C@H]2[C@H]1CC/C(COC(=O)NCc1c[nH]c3ccc(OC)cc13)=C\\CC[C@@]1(C)O[C@@H]21"
  tested-system: "MDA-MB-435"
  group-label: "inactive"
- smiles-entry: "Cc1cc(N2CCOCC2)nc(N(CCNc2ccnc3cc(Cl)ccc23)Cc2ccco2)n1"
  tested-system: "MDA-MB-435"
  group-label: "inactive"
- smiles-entry: "COc1cc(-c2nn(C)nc2-c2cc3ccccc3s2)cc(OC)c1OC"
  tested-system: "MDA-MB-435"
  group-label: "active"

Task: Give the logged outcome of this assay for the following molecule: `COc1ccc(C2=C(Br)C(=O)OC2)cc1Cl`
Output: inactive

Task: Give the logged outcome of this assay for the following molecule: `CCOc1ccc(/C=N/Nc2cc(C)nc3ccc(Cl)cc23)cc1`
Output: inactive

###

# Test system: ACHN renal
# protocol-description: NCI tumour cell line growth inhibition, 48 h
What GI50 was measured for each of the following?

Worked cases, GI50 given:
- compound: "CNC(=O)c1cc(Oc2ccc3nc(NC(=O)c4cc(C(F)(F)F)cc(C(F)(F)F)c4)sc3c2)ccn1"
  GI50: "3260 nM"
- compound: "CCCCN(CCCC)c1cc(C(=O)CCCCCN)c2ccccc2n1"
  GI50: "1760 nM"
- compound: "O=C1OCC2=C1C(c1cccc([N+](=O)[O-])c1)c1cc3c(cc1N2CCO)CCC3 (stereo unspecified)"
  GI50: "398 nM"
- compound: "Oc1c(Cl)cc(C(c2cc(Cl)c(O)c(Cl)c2)C(c2cc(Cl)c(O)c(Cl)c2)c2cc(Cl)c(O)c(Cl)c2)cc1Cl"
  GI50: "5210 nM"
- compound: "CN(C)c1cc2c(cc1Sc1nc3c(N)nccc3n1CCNCC(C)(C)C)OCO2"
  GI50: "573 nM"

Here is another compound to look at.
Task: Please give the measured GI50 for this compound: NC(=O)c1ncn(C2OC(CO)C(O)C2O)n1 (stereo unspecified)
Output: 59800 nM

###

What TGI was measured for each of the following?
# Tested on: 786-0 renal
# protocol-description: NCI tumour cell line growth inhibition, 48 h

Report TGI for every entry below.
1. CC(=O)O[C@@]12[C@@H]3O[C@@]4(O)C[C@]5(C)[C@H]6C[C@@](C(C)C)(O[C@H]5c5ccoc5)O[C@H]1[C@]6(C4)O[C@]2(O)C(C)=CC3(C)C
2. Oc1c(Cl)cc(C(c2cc(Cl)c(O)c(Cl)c2)C(c2cc(Cl)c(O)c(Cl)c2)c2cc(Cl)c(O)c(Cl)c2)cc1Cl
3. C#CCn1c(=O)c(C)cn(/C(=C/C(=O)OCC)C(=O)OCC)c1=O
4. COc1c(Nc2ncc(Cl)c(N[C@@H]3[C@H]4C=CC(C4)[C@@H]3C(N)=O)n2)ccc2c1CC[C@@H](N1CCOCC1)CC2
5. CC(C)Cc1ccc(C(C)/C=C2\CCC(CN3CCOCC3)C2=O)cc1 (stereo unspecified)
6. NC(=O)Cc1ccccc1Oc1nccc(-c2c(-c3ccc(F)cc3)ncn2C2CCNCC2)n1

Output:
1. > 100 µM
2. 16.7 µM
3. 19.4 µM
4. 12.2 µM
5. 3.21 µM
6. > 25 µM

Report TGI for every entry below.
1. COc1ccc2cc(-c3ccc(OC)c(OC)c3)c(=O)oc2c1
2. C[C@@]12CCC[C@@](C)(C(=O)O)C1CC[C@]13C=C(CO)[C@](O)(CCC12)C3 (stereo partly specified)
3. COC(=O)C1C(=O)O[C@@H](c2ccc(OC)cc2)C1C(=O)OC (stereo partly specified)
4. CNC(=S)NNC(=O)c1c(C)nc2sccn12
5. Clc1ccc(N/N=C/c2ccccn2)nc1
6. Fc1ccc(C2(CCCN3CCc4[nH]c5cc(F)ccc5c4C3)OCCO2)cc1

Output:
1. > 100 µM
2. > 100 µM
3. > 100 µM
4. > 100 µM
5. > 100 µM
6. 27.1 µM
